# Tgt: recombinant IL4I1 (Homo sapiens)
# Sequence (Q96RQ9 22-567): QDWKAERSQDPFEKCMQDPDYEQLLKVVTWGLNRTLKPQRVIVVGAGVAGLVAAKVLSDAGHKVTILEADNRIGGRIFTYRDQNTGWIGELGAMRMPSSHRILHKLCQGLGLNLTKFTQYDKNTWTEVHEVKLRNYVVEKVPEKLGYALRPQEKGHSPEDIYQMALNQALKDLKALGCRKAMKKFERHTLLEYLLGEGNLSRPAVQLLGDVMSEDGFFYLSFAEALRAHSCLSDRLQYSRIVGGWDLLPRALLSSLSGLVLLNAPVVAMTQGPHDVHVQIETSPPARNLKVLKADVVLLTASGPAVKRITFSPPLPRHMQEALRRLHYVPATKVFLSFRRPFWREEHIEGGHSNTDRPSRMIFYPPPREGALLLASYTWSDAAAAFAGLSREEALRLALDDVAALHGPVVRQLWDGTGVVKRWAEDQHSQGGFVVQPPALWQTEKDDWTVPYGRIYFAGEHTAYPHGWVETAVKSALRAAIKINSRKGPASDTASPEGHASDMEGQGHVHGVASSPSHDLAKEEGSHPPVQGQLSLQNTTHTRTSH
# Procedure Details: IL4I1 Enzymatic Assay (Amplex Red/HRP coupled detection of H2O2, fluorescence)
# Stated Conditions: 1 nM recombinant IL4I1; four-hour pre-incubation with compound; 1 mM each Phe, Tyr, Trp; ten-point titration
Reported Property: EC50 (nM)

[[record]]
compound = "CC(C#N)n1cc(C(=O)NCc2cc(-c3ccncc3)on2)nn1 (single isomer, unassigned) [Example 276]"
result = 113

[[record]]
compound = "Cc1ccc(-n2cc(C(=O)NCc3ccc(-c4ccccc4)nn3)nn2)c(C)n1"
result = 25

[[record]]
compound = "Cc1ccc(-n2cc(C(=O)NCc3ccc(-c4ccccc4Cl)nn3)nn2)c(C)n1"
result = 482

[[record]]
compound = "O=C(NCc1nnc(-c2ccccc2)s1)c1cn([C@@H]2CC(=O)N(C3CC3)C2)nn1"
result = 610

[[record]]
compound = "CC(C#N)n1cc(C(=O)NCc2cc(-c3ccncc3)no2)nn1 (single isomer, unassigned) [Example 286]"
result = 72

[[record]]
compound = "O=C(NCc1nnc(-c2ccccc2)s1)c1nnn2ccccc12"
result = 591

[[record]]
compound = "O=C(NCc1nnc(-c2ccccc2)s1)c1cn([C@@H]2C[C@@H]2C(F)F)nn1 (single isomer, unassigned) [Example 145]"
result = 5

[[record]]
compound = "CC(C#N)n1cc(C(=O)NCc2cc(-c3ccncc3)on2)nn1 (single isomer, unassigned) [Example 275]"
result = 25


All figures here come from patent US20240336608A1.
